The reported measurements were obtained from the nanobody polyreactivity screen of Harvey et al. (2022).

# assay.notes: yeast display, Sf9 membrane polyspecificity reagent, FACS + sequencing; frameworks hold sequencing errors

>  <construct.sequence>
QVQLVESGGGLVQAGGSLRLSCAASGNIFGWNDMGWCRQAPGKEWEVVAAISWTGDSTYDADSVKGRFTISRDNAKNTVYLQMNSLKPEDTAVYYGAADTPTLQYLTPRSEFDAWGQGTQVTVSS

>  <polyreactivity (PSR sort gate)>
low polyreactivity

$$$$
>  <construct.sequence>
QVQLVESGGGLVQAGGSLRLSCAASGFTFSDNAMGWDRQAPGKERELVATISQSSGSTSYADSVKGRFTISRDYAKNTVYLQLNSLKPEDTAVYSCANRRLFYWGKGTQVTVSS

>  <polyreactivity (PSR sort gate)>
low polyreactivity

$$$$
